Reference source: ChEMBL document CHEMBL1201862

System: COLO 205
Test: NCI tumour cell line growth inhibition, 48 h
The source made the active and inactive calls. Cut-off read from the data, not from the text of the source: active = GI50 up to about 1.1 µM and inactive = higher.
readout name: GI50

Below: 2 compounds and their reported GI50.
# compound, measurement target, reading
records = [
    ("COc1ccc(OC)c2c1C=CC(Br)=CC2", "COLO 205", "0.314 µM (active)"),
    ("COC(=O)C(CC(=O)c1ccccc1)c1ccccc1NC(C)=O (configuration not stated)", "COLO 205", "> 100 µM (inactive)"),
]

Task: For O=C(CC/C(CC(=O)c1ccc(Br)cc1)=N\O)Nc1ccc(Cl)c(Cl)c1 , what is its reported GI50?
Output: 37.8 µM (inactive)

====

Test system: BT-549
Experiment: NCI tumour cell line growth inhibition, 48 h
Activity calls are given as the source filed them. Cut-off read from the data, not from the text of the source: active = GI50 up to about 1.1 µM and inactive = higher.
readout name: GI50

# compound, GI50
data = [
    ("CC1(C)Oc2ccc3ccc(=O)oc3c2C(O)C1O (centres undefined)", "22.5 µM (inactive)"),
]

Task: For the record Cc1nc(C(N)=S)sc1C(=O)CC(=O)C(=O)Nc1ccc(Br)cc1 , what value of GI50 is listed for BT-549?
Output: > 100 µM (inactive)

Task: What value of GI50 on BT-549 does CCOP(=O)(OCC)[C@]12C[C@@H](C)C=C[C@H]1COC2=O have?
Output: > 100 µM (inactive)

Task: Identify the measured GI50 of C=Cn1c([N+](=O)[O-])cnc1/C=C/c1ccc(C(=O)OCCN2CCOCC2)cc1 for BT-549.
Output: > 100 µM (inactive)

====

System: HCT-116
Assay: NCI tumour cell line growth inhibition, 48 h
The source made the active and inactive calls. No stated cut-off is given here; in the data, active = GI50 up to about 1.1 µM and inactive = higher.
Your reply should match one of these outcome classes. TRUE (active), FALSE (inactive)

# molecule, label value
records = [
    ("C=C(C)C[C@H](Sc1nc2ccccc2s1)[C@H](C)O", "FALSE"),
    ("O=C(Nc1ccccc1)N(CCCCN(Cc1ccccc1)C(=O)Nc1ccccc1)Cc1ccccc1", "FALSE"),
    ("O=C(/C=C/c1ccc(O)c(O)c1)OCCCc1ccccc1", "FALSE"),
    ("O=C1C/C(=C\\c2ccccc2)C(=O)c2ccccc2N1", "FALSE"),
    ("c1nnc(NCNc2nncs2)s1", "FALSE"),
    ("N=C(N)c1ccc(/C=C/c2ccc(C(=N)N)cc2)cc1", "FALSE"),
]

Task: Assay result, entry CCOC(=O)CCC(C(=O)OCC)n1nc2ccc(Nc3c(C)[n+]([O-])c4cc(F)c(OCC)cc4[n+]3[O-])cc2n1 (stereo unspecified) — outcome?
Output: FALSE

Task: Status in this test for COc1ccc(C(=O)O/N=C2/CCCCC2CN(C)C)cc1 (stereo unspecified) ?
Output: FALSE

Task: So what was the verdict on CNC(=S)Nc1ccc(OC)c2ccccc12 in this test?
Output: FALSE

Task: Record lookup: outcome of this test for CC1=C(C(=O)CC(=O)C(=O)Nc2ccccc2C(F)(F)F)Sc2ccccc2N1 ?
Output: FALSE

Task: Call for entry N=C(N)NS(=O)(=O)c1ccc(NC(=O)c2cccn3c(=O)c4ccccc4nc23)cc1 :
Output: FALSE

Task: What outcome does the record of this test show for COC1CC2C=CC3C4OC2(/C(C)=C/C(C)C(C(C)O)OC1=O)C3C(O)C(C)C4OC(=O)c1ccc[nH]1 (stereo unspecified) ?
Output: FALSE

Task: Recorded call for CC(C)(Br)C(Br)CCC(C)(Br)C(Br)CO (stereo unspecified) ?
Output: FALSE

Task: Hello, I am checking results. What call was entered for Cc1ccccc1/N=N/c1c(-c2ccccc2)nn(C(=O)CC(=O)Nc2cccc(Cl)c2)c1-c1ccccc1 ?
Output: FALSE

Task: What call does the record list for CC(=O)NCCc1c[nH]c2ccc(Cl)cc12 ?
Output: FALSE

Task: # fetch the recorded call for CS(=O)(=O)c1cc(=O)c2ccccc2s1 here
Output: FALSE

Task: State the result this test recorded for N#CCCN(CCC#N)CCN(CCN(CCC#N)CCC#N)CCN(CCC#N)CCC#N .
Output: FALSE

Task: Hey, what did the test say about O=C1c2ccccc2CC12Cc1ccc3c(c1C2=O)CCCC3 (stereo unspecified) ?
Output: FALSE

Task: Name the outcome recorded for O=C1c2ccccc2CCC1C(O)(C(F)(F)F)C(F)(F)F (stereo unspecified) in the assay.
Output: FALSE

Task: Lab log entry: COc1ccc(/N=C(/[N-]n2c(=O)c(C)nn(C)c2=S)N(c2ccc(OC)cc2)c2n[n+]3c(=O)c(C)nn(C)c3s2)cc1 — outcome as called in the assay?
Output: FALSE

Task: Test call, this molecule: C/C=C(\C)C(=O)OC1/C=C(\C)CC/C=C(\C)CC2OC(=O)C(C)(OC(C)=O)C12 (stereo unspecified)
Output: FALSE

Task: Assay outcome for Cc1cccc2c3ccc4c(c3n(C)c12)C(=O)C=CC4=O : what was it?
Output: FALSE

Task: Field: outcome | Entry: COc1cc(Nc2nc3cc(C(F)(F)F)ccc3nc2-c2ccccc2)cc(OC)c1OC
Output: FALSE

Task: Test call for this molecule, please: CC(=O)OCC12CC(CC1OC(C)=O)c1ccccc12 (stereo unspecified)
Output: FALSE

Task: Test call, this molecule: Cc1cc(N(CCC#N)CCC#N)ccc1/C=N/NC(=O)c1ccccc1
Output: FALSE

Task: Test call, this molecule: CCOc1ccc([Se][Se]c2ccc(OCC)cc2)cc1
Output: FALSE

Task: GET /call?item= CC(=O)O[C@H]1C(=O)[C@@]2(C)[C@H]([C@H](OC(=O)c3ccccc3)[C@]3(O)C[C@H](OC(=O)[C@H](O)[C@@H](NC(=O)c4ccc(N)cc4)c4ccccc4)C(C)=C1C3(C)C)[C@]1(OC(C)=O)CO[C@@H]1C[C@@H]2O returns the recorded outcome of this test.
Output: TRUE

Task: GET /call?item= COc1cc(/N=N\c2cccc(S(=O)(=O)O)c2)c(C)cc1/N=N\c1ccc(/C=C/c2ccc(/N=[N+](/[O-])c3ccc(/C=C/c4ccc(/N=N\c5cc(C)c(/N=N/c6cccc(S(=O)(=O)O)c6)cc5OC)cc4)c(S(=O)(=O)O)c3)cc2S(=O)(=O)O)cc1 returns the recorded outcome of this test.
Output: FALSE

====

# GI50 listing for each entry below
System: HCT-116
Experiment: NCI tumour cell line growth inhibition, 48 h
The source made the active and inactive calls. Rule as the data show it: active = GI50 up to about 1.1 µM and inactive = higher.

Task: Report GI50 for CC1(C)Oc2ccc3ccc(=O)oc3c2C(O)C1O (stereo not drawn) please.
Output: 38.8 µM (inactive)

Task: # GI50 lookup, item Cc1cc(-c2ccccc2)nc(Nc2nc3ccccc3o2)n1
Output: > 100 µM (inactive)

Task: Given the entry N#C/C=C\c1ccc(-c2cc(C(F)(F)F)cc(C(F)(F)F)c2)o1 , report its measured GI50.
Output: 35.4 µM (inactive)

Task: For the molecule shown here, CN1C(c2ccccc2)CC(=O)C(N)C1c1ccccc1 (stereo not drawn) , give the reported GI50.
Output: 18 µM (inactive)

Task: Query (molecule): CC(=O)c1c2c(cc3c1CC1(Cc4cc5c(cc4C1)CCCC5)C3)CCCC2 ; field requested: GI50
Output: > 100 µM (inactive)

Task: Sample O=C1NCCS(=O)(=O)N2CCC[C@@H]12 — what was its GI50?
Output: > 100 µM (inactive)

Task: Look at this molecule and give its reported GI50. O=C1/C(=C/Cc2ccco2)N=C(c2ccccc2)N1c1nc2ccc(Sc3ccccc3)cc2[nH]1
Output: 17.8 µM (inactive)

====

Tested on: MDA-N
Test: NCI tumour cell line growth inhibition, 48 h
Calls of active or inactive are those of the source. Cut-off read from the data, not from the text of the source: active = GI50 up to about 1.1 µM and inactive = higher.
readout name: GI50

Completed entries (count: 3):
# compound, reading
data = [
    ("O=c1[nH]nc(-c2ccccc2)n1/N=C\\CC/C=N\\n1c(-c2ccccc2)n[nH]c1=O", "20 µM (inactive)"),
    ("CN1CCCN2CCN(C)CCN(CC1)CC2", "> 100 µM (inactive)"),
    ("CC1(C)CCC[C@@]2(C)C1CC[C@@]1(CO1)[C@@H]2/C=C\\C(C=O)CC=O (stereo partly drawn)", "> 87.9 µM (inactive)"),
]

Shift focus to the following entry.
Task: Quick one: GI50 of CC1C2(C)OC(=N)C(C#N)(C(C)O2)C1(C#N)C#N (stereo not drawn) ?
Output: 18.6 µM (inactive)

====

System: IGROV-1
Experiment: NCI tumour cell line growth inhibition, 48 h
Activity calls are given as the source filed them. No stated cut-off is given here; in the data, active = GI50 up to about 1.1 µM and inactive = higher. Residues, ends and D or L forms follow the SMILES beside them. *: point of attachment. Boc = CC(C)(C)OC(=O)*
Use one of these outcomes when replying: active, inactive

Previously resolved entries follow.
# compound, measurement target, label value
data = [
    ("O=c1c2ccc(Cl)cc2oc2c(CNc3ccc(S(=O)(=O)Nc4nccs4)cc3)cccc12", "IGROV-1", "inactive"),
    ("CCOC(=O)CCC(C(=O)OCC)n1nc2ccc(Nc3c(C)[n+]([O-])c4cc(F)c(OCC)cc4[n+]3[O-])cc2n1 (configuration not stated)", "IGROV-1", "inactive"),
]

Task: Would you mind telling me which call this test gave CCOC(=O)c1c[nH]c2c(Sc3ccccc3)nccc2c1=O ?
Output: inactive

Task: # lookup: test call for COc1ccc2nc3cc(Cl)ccc3c(NCCCN(C)CCCNc3ccc4ncn5c6ccccc6c(=O)c3c45)c2c1
Output: active

Task: Name the outcome recorded for Cc1ccc(S(=O)(=O)OCC23CCC(C4CC42)C2CC23)cc1 (configuration not stated) in the assay.
Output: inactive

Task: Hey, what did the test say about CC1=NC(C(C)C)C(=O)O1 (configuration not stated) ?
Output: inactive

Task: So what was the verdict on COC(=O)C(Cc1c[nH]c2ccccc12)NC(=O)C(Cc1c[nH]c2ccccc12)NC(=O)C(Cc1c[nH]c2ccccc12)NC(=O)C(Cc1c[nH]c2ccccc12)NC(=O)C(Cc1c[nH]c2ccccc12)NC(=O)C(Cc1c[nH]c2ccccc12)NC(=O)OC(C)(C)C (configuration not stated) (Boc-WWWWWW-OMe; configuration not given here) in this test?
Output: inactive

Task: What call does the record list for COc1cc2ccc(=O)oc2cc1O ?
Output: inactive

Task: Assay outcome for Nc1ncnc2c1sc1nc3ccccc3n12 : what was it?
Output: inactive

Task: Each compound tested received a call. Report the one for Cc1ccc(/C=C2\CCCC(CN3CCCCC3)C2=O)cc1 (configuration not stated) .
Output: inactive

Task: Could you kindly confirm the outcome this assay logged for CS(=O)(=O)c1cc(=O)c2ccccc2s1 ?
Output: inactive

Task: State the result this test recorded for Cc1cc(O)nc2cc3oc4ccccc4c3cc12 .
Output: inactive

Task: Look up the recorded call for CS(=O)(=O)c1nc(N)nc2nc[nH]c12 in this test.
Output: inactive

Task: # fetch the recorded call for O=C1CC(=O)n2cnc3cccc(c32)N1 here
Output: inactive

Task: Fill in: this test's call for O=C(NCCCCCCNC(=O)n1cc(F)c(=O)[nH]c1=O)NCCCOCCOCCCNC(=O)C(O)C(O)C(O)C(O)CO (configuration not stated) is ___
Output: inactive
